molecular target: T1, Anti-CD28 Fab (SEQ ID NOs: 202, 203); assay: phage ELISA, Fab on plate, CD28 antigen as competitor
T1 construct: biotinylated and captured on neutravidin coated plates in the phage ELISA
T1 sequence (VH, as listed by the source, chain 1 of 2): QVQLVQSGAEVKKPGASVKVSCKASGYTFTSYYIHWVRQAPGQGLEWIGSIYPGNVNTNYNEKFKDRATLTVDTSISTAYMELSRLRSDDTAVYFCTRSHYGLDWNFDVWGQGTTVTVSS
T1 sequence (VL, as listed by the source, chain 2 of 2): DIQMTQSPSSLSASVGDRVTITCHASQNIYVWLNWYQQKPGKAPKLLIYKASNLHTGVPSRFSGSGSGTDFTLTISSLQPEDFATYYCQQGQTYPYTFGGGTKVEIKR
# cutoff 0.07 applies to Anti-CD28 Fab signal in the presence of CD28; >= gives condition met, < gives condition not met

binder	class
YCDGHNWEYMEKCL [Phage-622]	condition not met
YCDGHTKEYMWKCL [Phage-736]	condition not met
YCEGHSAVYMSKCL [Phage-663]	condition not met
YCQGHSPNYITKCF [Phage-608]	condition not met
YCDGHQPQYMSKCL [Phage-628]	condition met
YCDGHIPEYMTKCL [Phage-661]	condition not met
YCDGHAPIYMQKCL [Phage-747]	condition not met
YCQGHSVEHMAKCL [Phage-666]	condition not met
YCDGHSLEYIEKCL [Phage-601]	condition not met
YCDGHSQEYMSKCL [Phage-699]	condition not met
YCEGHSAEYIAKCL [Phage-614]	condition met
YCEGHSPEYMHKCL [Phage-647]	condition met
YCAGLFEEYMSKCL [Phage-685]	condition not met
YCEGHIPAYMAKCL [Phage-746]	condition met
